System: P388
ASSAY: Cytotoxicity against mouse P388 cells
Type: functional
TEST SETTINGS: read-out: ED50 (the source's name)
Below: a set of entries, each annotated with reported EC50.
MEASUREMENT TYPE: EC50 (ng/mL)

• C=C(C)[C@]12C[C@@H](C)[C@@]34O[C@@]5(CCCCCCC[C@H](C)[C@H]6[C@H](C)[C@H](OC(=O)c7ccccc7)[C@@](O)([C@H](O)[C@@]7(CO)O[C@H]7[C@@H]3[C@H]1O5)[C@@H]64)O2 = 2.3
• C=C(C)[C@@]12C[C@@H](C)[C@@]34OC5(O[C@@H]1[C@@H]3[C@@H]1O[C@]1(CO)[C@@H](O)[C@@]1(O)[C@H]4[C@H]([C@H](C)[C@@H]1OC(=O)c1ccccc1)[C@H](C)CCCCCC[C@H]5O)O2 = 0.78
• C=C(C)[C@]12C[C@@H](C)[C@@]34O[C@](/C=C/C=C/CCCCC)(O[C@@H]1[C@@H]3[C@@H]1O[C@]1(CO)[C@@H](O)[C@]1(O)C(=O)C(C)=C[C@H]14)O2 = 0.24
